Reference for the values: ChEMBL document CHEMBL4342521

# study-system: Histone deacetylase 7 (Homo sapiens, UniProt Q8WUI4)
# measurement-protocol: Inhibition of recombinant human N-terminal GST-tagged HDAC7 (518 to end residues) expressed in baculovirus infected Sf9 cells using Boc-Lys (trifluoroacetyl)-AMC as substrate preincubated for 1 hr followed by substrate addition and measured after 2 hrs by fluorescence based micro plate reader analysis
parameter-measured: IC50

Challenge: What measured IC50 goes with `CCCNNC(=O)/C=C/c1ccc(CNCCc2c(C)[nH]c3ccccc23)cc1.O=C(O)C(F)(F)F` ?
Response given: > 10 µM

====

# measurement-protocol: Oral bioavailability in BALB/c mouse at 50 mg/kg dosed via gavage after 24 hrs by Lc-MS/MS analysis
# Format: ADME, organism-based
# experimental-context: in vivo
parameter-measured: bioavailability (%)
Report the value in % with no unit label.

Challenge: What measured bioavailability goes with `Cc1[nH]c2ccccc2c1CCNCc1ccc(/C=C/C(=O)NO)cc1` ?
Response given: 4.62

====

# study-system: Histone deacetylase 8 (Homo sapiens)
# Sequence (Q9BY41 whole entry): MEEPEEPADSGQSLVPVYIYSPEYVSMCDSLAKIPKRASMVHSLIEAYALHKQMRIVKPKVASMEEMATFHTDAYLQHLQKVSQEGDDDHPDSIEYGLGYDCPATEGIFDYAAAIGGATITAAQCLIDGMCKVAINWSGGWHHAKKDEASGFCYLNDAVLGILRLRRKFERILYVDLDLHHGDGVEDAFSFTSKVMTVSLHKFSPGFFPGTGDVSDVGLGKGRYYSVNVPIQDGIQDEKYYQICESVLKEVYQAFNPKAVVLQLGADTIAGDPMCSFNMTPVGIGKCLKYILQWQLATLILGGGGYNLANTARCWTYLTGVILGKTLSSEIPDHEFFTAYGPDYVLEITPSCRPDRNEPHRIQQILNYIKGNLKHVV
# measurement-protocol: Inhibition of recombinant full length human C-terminal His-tagged HDAC8 expressed in baculovirus infected Sf9 cells using Boc-Lys (trifluoroacetyl)-AMC as substrate preincubated for 1 hr followed by substrate addition and measured after 2 hrs by fluorescence based micro plate reader analysis
parameter-measured: IC50 (nM)
Report the value in nM with no unit label.

Challenge: Lab request: please report IC50 under test system Histone deacetylase 8 (Homo sapiens) for `CCCNNC(=O)/C=C/c1ccc(CNCCc2c(C)[nH]c3ccccc23)cc1.O=C(O)C(F)(F)F`
Response given: 1760

====

# study-system: Histone deacetylase 1 (Homo sapiens)
# Sequence (Q13547 whole entry): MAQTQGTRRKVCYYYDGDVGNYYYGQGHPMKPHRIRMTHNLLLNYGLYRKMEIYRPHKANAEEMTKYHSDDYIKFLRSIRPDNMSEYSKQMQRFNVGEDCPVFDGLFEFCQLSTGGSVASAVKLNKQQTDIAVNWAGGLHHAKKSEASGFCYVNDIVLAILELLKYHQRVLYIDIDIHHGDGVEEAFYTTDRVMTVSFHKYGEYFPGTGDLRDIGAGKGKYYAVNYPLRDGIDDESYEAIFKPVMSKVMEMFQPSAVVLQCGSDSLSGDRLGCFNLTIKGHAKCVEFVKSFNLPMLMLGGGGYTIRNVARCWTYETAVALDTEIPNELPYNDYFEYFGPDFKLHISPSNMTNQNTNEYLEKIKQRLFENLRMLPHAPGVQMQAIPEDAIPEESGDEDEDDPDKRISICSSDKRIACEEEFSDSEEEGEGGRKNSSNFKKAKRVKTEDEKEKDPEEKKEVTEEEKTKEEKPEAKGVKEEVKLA
# measurement-protocol: Inhibition of recombinant HDAC1 (unknown origin) using Boc-Lys(acetyl)-AMC as substrate preincubated for 1 hr followed by substrate addition and measured after 2 hrs by fluorescence based micro plate reader analysis
Measured log10 of IC50, listed per entry for reference.
Recall that a logarithmic scale is used here: each number is log10 of IC50 in nM.

Challenge: What measured log10 of IC50 goes with `CCCCN(CCC)NC(=O)/C=C/c1ccc(CNCCc2c(C)[nH]c3ccccc23)cc1` ?
Response given: 2.32

More entries:
Challenge: What measured log10 of IC50 goes with `CCCNNC(=O)c1ccc(CNCc2ccccc2)cc1` ?
Response given: 1.94

Challenge: What measured log10 of IC50 goes with `CCCNNC(=O)/C=C/c1ccc(CN(CCc2c(C)[nH]c3ccccc23)C(=O)OC(C)(C)C)cc1` ?
Response given: 2.26

Challenge: What measured log10 of IC50 goes with `CCCN(CCC)NC(=O)/C=C/c1ccc(CNCCc2c(C)[nH]c3ccccc23)cc1` ?
Response given: 2.62

Challenge: What measured log10 of IC50 goes with `Cc1[nH]c2ccccc2c1CCNCc1ccc(/C=C/C(=O)NN2CCCC2)cc1` ?
Response given: 3.93

Challenge: What measured log10 of IC50 goes with `CCCN(CC)NC(=O)/C=C/c1ccc(CNCCc2c(C)[nH]c3ccccc23)cc1` ?
Response given: 3.47

Challenge: What measured log10 of IC50 goes with `CCCNNC(=O)c1ccc(CNCCc2c(C)[nH]c3ccccc23)cc1` ?
Response given: 1.47

Challenge: What measured log10 of IC50 goes with `CCCNNC(=O)c1ccc(CN(CCc2c(C)[nH]c3ccccc23)C(=O)OC(C)(C)C)cc1` ?
Response given: 1.46

Challenge: What measured log10 of IC50 goes with `COC(=O)CCNNC(=O)/C=C/c1ccc(CNCCc2c(C)[nH]c3ccccc23)cc1` ?
Response given: 3.04

====

# study-system: UniProt Q13547
# measurement-protocol: Inhibition of recombinant HDAC1 (unknown origin) using Boc-Lys(acetyl)-AMC as substrate preincubated for 1 hr followed by substrate addition and measured after 2 hrs by fluorescence based micro plate reader analysis
Param label: returns Criterion met when IC50 < 3000 nM, returns Criterion not met otherwise, including exact equality.

Reference set (3 entries):
Challenge: Please determine if `CCCNNC(=O)c1ccc(CN(Cc2ccccc2)C(=O)OC(C)(C)C)cc1` is below 3000 nM in terms of IC50.
Response given: Criterion met

Challenge: Please determine if `CCCCCCN(CCC)NC(=O)/C=C/c1ccc(CNCCc2c(C)[nH]c3ccccc23)cc1` is below 3000 nM in terms of IC50.
Response given: Criterion met

Challenge: Please determine if `CCCNNC(=O)c1cccc(CN(CCc2c(C)[nH]c3ccccc23)C(=O)OC(C)(C)C)c1` is below 3000 nM in terms of IC50.
Response given: Criterion met

More entries:
Challenge: Please determine if `Cc1[nH]c2ccccc2c1CCNCc1ccc(/C=C/C(=O)NNCCC#N)cc1` is below 3000 nM in terms of IC50.
Response given: Criterion met

Challenge: Please determine if `Cc1[nH]c2ccccc2c1CCNCc1ccc(/C=C/C(=O)NN(CCCO)CCCO)cc1` is below 3000 nM in terms of IC50.
Response given: Criterion not met

Challenge: Please determine if `Cc1[nH]c2ccccc2c1CCNCc1ccc(/C=C/C(=O)NNCCN)cc1` is below 3000 nM in terms of IC50.
Response given: Criterion not met

====

# measurement-protocol: AUC (0 to infinity) in BALB/c mouse at 50 mg/kg, po via gavage after 24 hrs by Lc-MS/MS analysis
# Format: ADME, organism-based
# Parameters: dose 50 mg/kg, time infinity, route oral
# experimental-context: in vivo
parameter-measured: AUC(0-inf)
Value and unit, in that order.

Challenge: What measured AUC(0-inf) goes with `Cc1[nH]c2ccccc2c1CCNCc1ccc(/C=C/C(=O)NO)cc1` ?
Response given: 126 ng·h/mL

====

# study-system: UniProt Q9UKV0
# measurement-protocol: Inhibition of recombinant human C-terminal His-tagged HDAC9 (604 to 1066 residues) expressed in baculovirus infected Sf9 cells using Boc-Lys (trifluoroacetyl)-AMC as substrate preincubated for 1 hr followed by substrate addition and measured after 2 hrs by fluorescence based micro plate reader analysis
parameter-measured: IC50

Challenge: Lab request: please report IC50 under test system UniProt Q9UKV0 for `CCCNNC(=O)/C=C/c1ccc(CNCCc2c(C)[nH]c3ccccc23)cc1.O=C(O)C(F)(F)F`
Response given: > 10 µM

====

# study-system: Histone deacetylase 5 (Homo sapiens)
# measurement-protocol: Inhibition of recombinant human HDAC5 using Boc-Lys (trifluoroacetyl)-AMC as substrate preincubated for 1 hr followed by substrate addition and measured after 2 hrs by fluorescence based micro plate reader analysis
parameter-measured: IC50

Challenge: What measured IC50 goes with `CCCNNC(=O)/C=C/c1ccc(CNCCc2c(C)[nH]c3ccccc23)cc1.O=C(O)C(F)(F)F` ?
Response given: > 10 µM

====

# study-system: Histone deacetylase 3/Nuclear receptor corepressor 2 (HDAC3/NCoR2) (Homo sapiens)
# Sequence (O15379 whole entry): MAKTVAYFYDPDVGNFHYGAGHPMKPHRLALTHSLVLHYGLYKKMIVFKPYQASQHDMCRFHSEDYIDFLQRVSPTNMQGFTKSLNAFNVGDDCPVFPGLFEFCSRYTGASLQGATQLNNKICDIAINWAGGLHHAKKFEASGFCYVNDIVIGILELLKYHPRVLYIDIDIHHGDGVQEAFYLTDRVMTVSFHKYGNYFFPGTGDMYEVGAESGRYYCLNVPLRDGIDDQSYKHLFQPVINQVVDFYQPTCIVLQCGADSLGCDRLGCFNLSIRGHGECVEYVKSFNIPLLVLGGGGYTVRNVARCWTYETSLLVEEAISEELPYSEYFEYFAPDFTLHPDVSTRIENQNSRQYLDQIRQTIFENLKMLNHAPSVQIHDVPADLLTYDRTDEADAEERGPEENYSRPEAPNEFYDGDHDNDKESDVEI
# Sequence (Q9Y618 whole entry, further chain): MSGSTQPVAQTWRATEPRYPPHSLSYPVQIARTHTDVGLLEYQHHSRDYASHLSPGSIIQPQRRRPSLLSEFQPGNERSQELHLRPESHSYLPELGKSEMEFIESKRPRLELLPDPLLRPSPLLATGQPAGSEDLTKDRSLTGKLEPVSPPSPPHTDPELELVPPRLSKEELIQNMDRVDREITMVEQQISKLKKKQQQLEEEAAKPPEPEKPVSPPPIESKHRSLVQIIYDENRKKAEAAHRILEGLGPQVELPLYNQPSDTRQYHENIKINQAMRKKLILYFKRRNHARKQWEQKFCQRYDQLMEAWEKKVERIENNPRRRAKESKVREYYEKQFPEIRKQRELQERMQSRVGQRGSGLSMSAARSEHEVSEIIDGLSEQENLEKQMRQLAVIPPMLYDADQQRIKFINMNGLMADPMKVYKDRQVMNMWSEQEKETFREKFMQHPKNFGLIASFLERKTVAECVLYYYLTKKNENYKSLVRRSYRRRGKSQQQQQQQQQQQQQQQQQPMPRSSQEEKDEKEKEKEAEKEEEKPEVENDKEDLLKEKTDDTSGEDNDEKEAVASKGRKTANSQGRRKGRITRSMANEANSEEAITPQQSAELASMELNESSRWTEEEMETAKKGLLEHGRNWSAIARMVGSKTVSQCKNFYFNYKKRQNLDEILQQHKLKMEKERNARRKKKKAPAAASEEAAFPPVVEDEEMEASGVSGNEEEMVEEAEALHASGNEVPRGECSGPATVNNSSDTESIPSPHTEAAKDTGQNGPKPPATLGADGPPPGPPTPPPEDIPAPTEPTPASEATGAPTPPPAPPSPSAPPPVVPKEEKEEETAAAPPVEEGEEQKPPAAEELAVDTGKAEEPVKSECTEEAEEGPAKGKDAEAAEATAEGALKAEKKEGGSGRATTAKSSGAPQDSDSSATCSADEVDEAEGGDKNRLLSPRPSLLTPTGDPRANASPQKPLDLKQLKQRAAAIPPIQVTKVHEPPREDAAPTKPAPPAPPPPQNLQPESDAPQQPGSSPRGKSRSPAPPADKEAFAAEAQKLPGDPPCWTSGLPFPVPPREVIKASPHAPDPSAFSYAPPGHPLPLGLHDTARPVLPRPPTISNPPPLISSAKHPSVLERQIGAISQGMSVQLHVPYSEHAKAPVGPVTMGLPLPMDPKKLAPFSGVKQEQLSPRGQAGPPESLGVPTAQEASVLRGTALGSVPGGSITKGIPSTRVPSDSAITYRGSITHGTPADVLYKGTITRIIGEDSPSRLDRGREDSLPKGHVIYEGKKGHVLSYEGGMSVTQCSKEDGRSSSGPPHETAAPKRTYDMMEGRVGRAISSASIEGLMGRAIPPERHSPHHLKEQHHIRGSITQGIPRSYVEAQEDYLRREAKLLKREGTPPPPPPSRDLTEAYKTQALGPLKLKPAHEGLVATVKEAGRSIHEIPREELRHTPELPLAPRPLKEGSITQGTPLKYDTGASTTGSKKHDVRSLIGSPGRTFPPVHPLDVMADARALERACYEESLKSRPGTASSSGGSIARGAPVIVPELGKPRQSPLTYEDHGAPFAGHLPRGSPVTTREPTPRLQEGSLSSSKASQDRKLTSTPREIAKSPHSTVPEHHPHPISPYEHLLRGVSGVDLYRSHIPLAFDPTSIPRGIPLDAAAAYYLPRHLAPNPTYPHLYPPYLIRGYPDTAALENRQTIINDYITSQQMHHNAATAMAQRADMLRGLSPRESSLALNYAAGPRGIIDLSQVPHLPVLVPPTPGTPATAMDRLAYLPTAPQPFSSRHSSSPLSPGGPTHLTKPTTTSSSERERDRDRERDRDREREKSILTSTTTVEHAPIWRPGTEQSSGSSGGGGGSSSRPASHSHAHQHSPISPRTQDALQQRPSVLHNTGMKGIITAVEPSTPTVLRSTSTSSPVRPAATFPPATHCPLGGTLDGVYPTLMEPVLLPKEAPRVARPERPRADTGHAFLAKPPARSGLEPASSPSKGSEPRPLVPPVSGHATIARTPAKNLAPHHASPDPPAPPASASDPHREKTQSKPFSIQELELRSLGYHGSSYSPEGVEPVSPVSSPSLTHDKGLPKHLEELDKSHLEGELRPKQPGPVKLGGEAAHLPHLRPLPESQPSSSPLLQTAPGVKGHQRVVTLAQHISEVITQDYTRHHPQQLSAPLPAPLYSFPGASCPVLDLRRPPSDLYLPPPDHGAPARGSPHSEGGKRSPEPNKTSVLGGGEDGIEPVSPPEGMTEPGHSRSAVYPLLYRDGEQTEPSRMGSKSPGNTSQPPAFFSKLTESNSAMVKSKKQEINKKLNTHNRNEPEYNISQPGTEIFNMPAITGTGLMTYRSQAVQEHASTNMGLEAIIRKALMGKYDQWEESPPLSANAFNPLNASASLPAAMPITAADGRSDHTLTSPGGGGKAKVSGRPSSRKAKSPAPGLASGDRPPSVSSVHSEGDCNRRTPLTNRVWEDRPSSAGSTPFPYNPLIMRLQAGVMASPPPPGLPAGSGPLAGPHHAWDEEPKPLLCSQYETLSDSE
# measurement-protocol: biochemical
parameter-measured: log10 of IC50 (log10 of the value in nM)
Recall that a logarithmic scale is used here: each number is log10 of IC50 in nM.

Some entries whose results are on file:
Challenge: What measured log10 of IC50 goes with `CCCNNC(=O)c1ccc(CN(Cc2ccccc2)C(=O)OC(C)(C)C)cc1` ?
Response given: 1.89

Challenge: What measured log10 of IC50 goes with `CCCNNC(=O)c1ccc(CN(CCc2c(C)[nH]c3ccccc23)C(=O)OC(C)(C)C)cc1` ?
Response given: 1.10

Challenge: What measured log10 of IC50 goes with `Cc1[nH]c2ccccc2c1CCNCc1ccc(/C=C/C(=O)NNCCC#N)cc1` ?
Response given: 1.54

Challenge: What measured log10 of IC50 goes with `CCCN(CC)NC(=O)/C=C/c1ccc(CNCCc2c(C)[nH]c3ccccc23)cc1` ?
Response given: 2.74

Challenge: What measured log10 of IC50 goes with `Cc1[nH]c2ccccc2c1CCNCc1ccc(/C=C/C(=O)NN(C)C)cc1` ?
Response given: 3.00

More entries:
Challenge: What measured log10 of IC50 goes with `CCCNNC(=O)/C=C/c1ccc(CN(CCc2c(C)[nH]c3ccccc23)C(=O)OC(C)(C)C)cc1` ?
Response given: 1.23

Challenge: What measured log10 of IC50 goes with `CCCNNC(=O)c1ccc(CNCCc2c(C)[nH]c3ccccc23)cc1` ?
Response given: 1.30

Challenge: What measured log10 of IC50 goes with `CCCNNC(=O)c1ccc(CNCc2ccccc2)cc1` ?
Response given: 1.99

Challenge: What measured log10 of IC50 goes with `CCCN(CCC)NC(=O)/C=C/c1ccc(CNCCc2c(C)[nH]c3ccccc23)cc1` ?
Response given: 1.40

====

Measured pIC50, listed per entry for reference.
# study-system: Histone deacetylase 2 (Homo sapiens, UniProt Q92769)
# Sequence (Q92769 whole entry): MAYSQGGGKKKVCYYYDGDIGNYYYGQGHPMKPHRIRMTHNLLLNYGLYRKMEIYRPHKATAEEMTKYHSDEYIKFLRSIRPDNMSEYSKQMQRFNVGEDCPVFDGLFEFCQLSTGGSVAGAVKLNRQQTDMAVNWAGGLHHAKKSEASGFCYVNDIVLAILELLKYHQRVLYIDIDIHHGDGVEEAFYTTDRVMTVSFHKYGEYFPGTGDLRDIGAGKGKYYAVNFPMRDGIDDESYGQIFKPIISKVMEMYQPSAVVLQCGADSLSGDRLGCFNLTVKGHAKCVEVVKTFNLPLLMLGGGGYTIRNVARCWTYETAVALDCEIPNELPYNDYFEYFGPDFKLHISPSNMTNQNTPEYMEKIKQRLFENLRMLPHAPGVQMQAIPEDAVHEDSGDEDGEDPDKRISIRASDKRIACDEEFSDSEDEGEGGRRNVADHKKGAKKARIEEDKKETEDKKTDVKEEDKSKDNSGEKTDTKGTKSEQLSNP
Just the number, please; pIC50 means minus log10 of the concentration in mol/L.

Challenge: Lab request: please report pIC50 under test system Histone deacetylase 2 (Homo sapiens, UniProt Q92769) for `CCCNNC(=O)c1ccc(NCc2ccccc2)cc1`
Response given: 7.17

Challenge: Lab request: please report pIC50 under test system Histone deacetylase 2 (Homo sapiens, UniProt Q92769) for `CCCNNC(=O)/C=C/c1ccc(CN(CCc2c(C)[nH]c3ccccc23)C(=O)OC(C)(C)C)cc1`
Response given: 5.89

More entries:
Challenge: Lab request: please report pIC50 under test system Histone deacetylase 2 (Homo sapiens, UniProt Q92769) for `CCCNNC(=O)c1ccc(CN(CCc2c(C)[nH]c3ccccc23)C(=O)OC(C)(C)C)cc1`
Response given: 6.56

Challenge: Lab request: please report pIC50 under test system Histone deacetylase 2 (Homo sapiens, UniProt Q92769) for `CCCNNC(=O)c1ccc(NC(=O)c2ccccc2)cc1`
Response given: 6.32

Challenge: Lab request: please report pIC50 under test system Histone deacetylase 2 (Homo sapiens, UniProt Q92769) for `CCCNNC(=O)c1cccc(CNCCc2c(C)[nH]c3ccccc23)c1`
Response given: 5.31
